# targetSystem: full length human TPH1 (Homo sapiens, UniProt P17752)
# Construct: To generate the enzyme, full length human TPH1 is cloned into the plasmid pET20b(+); made in house; host or cells: E. coli
# Sequence (P17752 whole entry): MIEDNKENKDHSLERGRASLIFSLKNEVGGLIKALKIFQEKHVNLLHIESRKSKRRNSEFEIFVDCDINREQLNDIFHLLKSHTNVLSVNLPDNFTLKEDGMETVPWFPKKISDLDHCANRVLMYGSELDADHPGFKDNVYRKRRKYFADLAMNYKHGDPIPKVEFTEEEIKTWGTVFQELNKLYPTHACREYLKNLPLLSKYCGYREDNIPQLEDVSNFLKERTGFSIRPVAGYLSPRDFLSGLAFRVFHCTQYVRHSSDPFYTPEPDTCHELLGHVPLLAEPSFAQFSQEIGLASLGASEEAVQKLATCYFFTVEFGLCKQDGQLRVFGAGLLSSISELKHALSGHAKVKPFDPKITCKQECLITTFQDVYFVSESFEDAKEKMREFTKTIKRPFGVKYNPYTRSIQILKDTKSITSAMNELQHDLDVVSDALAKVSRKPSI
# protocolDetails: Biochemical in vitro assay using fluorescence readout (TPH1 enzyme activity)
# conditionDetails: Table 1, mean where determined several times
measuredMetric: IC50 (nM)

INSERT INTO assay_data (compound, unittag, quantitativereadout) VALUES
  ('CCc1nc(C)ccc1OCC(=O)N1CCc2nc3n(c2C1c1ccc(C2CC2)cc1F)CCN(C(C)=O)C3 (stereo not shown) [Example 5.2.17]', 'nM', 11),
  ('COCCOc1ccc(C2c3c(nc4n3CCCC4)CCN2C(=O)COc2ccc(C(=O)NC3CC3)nc2Cl)c(F)c1 (stereo not shown) [Example 1.27.1]', 'nM', 60),
  ('Cc1ccc(C2c3c(nc4n3CCCCC4)CCN2C(=O)COc2ccc(NS(C)(=O)=O)nc2Cl)c(F)c1 (stereo not shown) [Example 3.2.1]', 'nM', 21),
  ('CCc1nc(NS(C)(=O)=O)ccc1OCC(=O)N1CCc2nc3n(c2C1c1sccc1F)CCCC3 (stereo not shown) [Example 1.14.1]', 'nM', 16),
  ('Cc1nc(C)c(C2c3c(nc4n3CCCC4)CCN2C(=O)COc2ccc(N3CCCS3(=O)=O)nc2Cl)s1 (stereo not shown) [Example 1.10.14]', 'nM', 14);

I: CN(C)C(=O)c1ccc(OCC(=O)N2CCc3nc4n(c3C2c2ncc(Cl)cc2F)CCOC4)c(Cl)n1 (stereo not shown) [Example 6.4.2]
II: CCc1nc(N2CCCS2(=O)=O)ccc1OCC(=O)N1CCc2nc3n(c2C1c1sc(C)nc1C)CCS3 (stereo not shown) [Example 4.5.2]
Query: Select the item whose IC50 value is smaller, choosing between I and II . Pick one and reply with its label.
Reply: II
